FYI, the data here is from ChEMBL document CHEMBL3120114.

- System: Mus musculus
- Procedure details: Toxicity in po dosed Kunming mouse assessed as induction of catalepsy
- Assay type: organism-based
- Condition context: in vivo
The entries below come with measured ED50 values attached.
Assay readout: ED50 (mg/kg)

>  <Smiles representation>
CN1CCN(C2=Nc3cc(Cl)ccc3Nc3ccccc32)CC1

>  <Result value>
46.14

$$$$
>  <Smiles representation>
O=C(CCCN1CCC(O)(c2ccc(Cl)cc2)CC1)c1ccc(F)cc1

>  <Result value>
0.38

$$$$
>  <Smiles representation>
Cc1nc2n(c(=O)c1CCN1CCC(c3noc4cc(F)ccc34)CC1)CCCC2

>  <Result value>
0.43

$$$$
>  <Smiles representation>
Cc1c(OCCCCN2CCC(c3noc4cc(F)ccc34)CC2)ccc2c3c(c(=O)oc12)CCC3

>  <Result value>
66.47

$$$$
